Tested on: β-Xylosidase derived from pectinase G
Assay: Reactivity toward various isoflavone glycosides (HPLC)
Type: biochemical
Parameters: unit not given here
Settings: Reaction time 1 h; 55 °C, pH 4.0
observable: glucoside

Find glucoside (β-Xylosidase derived from pectinase G) for the entry O=c1c(-c2ccc(O)cc2)coc2cc(O[C@@H]3O[C@H](CO)[C@@H](O)[C@H](O)[C@H]3O)cc(O)c12 98.5

Find glucoside (β-Xylosidase derived from pectinase G) for the entry COc1cc2c(=O)c(-c3ccc(O)cc3)coc2cc1O[C@@H]1O[C@H](COC(C)=O)[C@@H](O)[C@H](O)[C@H]1O 100

Find glucoside (β-Xylosidase derived from pectinase G) for the entry O=C(O)CC(=O)OC[C@H]1O[C@@H](Oc2cc(O)c3c(=O)c(-c4ccc(O)cc4)coc3c2)[C@H](O)[C@@H](O)[C@@H]1O 100

Find glucoside (β-Xylosidase derived from pectinase G) for the entry CC(=O)OC[C@H]1O[C@@H](Oc2cc(O)c3c(=O)c(-c4ccc(O)cc4)coc3c2)[C@H](O)[C@@H](O)[C@@H]1O 100

Find glucoside (β-Xylosidase derived from pectinase G) for the entry COc1cc2c(=O)c(-c3ccc(O)cc3)coc2cc1O[C@@H]1O[C@H](COC(=O)CC(=O)O)[C@@H](O)[C@H](O)[C@H]1O 100

Find glucoside (β-Xylosidase derived from pectinase G) for the entry O=c1c(-c2ccc(O)cc2)coc2cc(O[C@@H]3O[C@H](CO)[C@@H](O)[C@H](O)[C@H]3O)ccc12 90.9

---

System: Crude diglycosidase
Test: Examination of temperature in the conversion into isoflavone aglycons by diglycosidase using soybean materials
Type: biochemical, Penicillium multicolor IAM7153
Parameters: concentration or dose not given beside the values
Settings: 45 °C; heat treatment of enzyme: yes; 6 h
The following compounds are listed with their measured Decomposition efficiency of daidzin family in roasted soy flour values.
Just the number please, in %, no unit attached.

Record request: Decomposition efficiency of daidzin family in roasted soy flour value, item CC(=O)OC[C@H]1O[C@@H](Oc2ccc3c(=O)c(-c4ccc(O)cc4)coc3c2)[C@H](O)[C@@H](O)[C@@H]1O [acetyldaidzin, 6″-O-acetyldaidzin] 42.5

---
Record request: Decomposition efficiency of daidzin family in roasted soy flour value, item O=c1c(-c2ccc(O)cc2)coc2cc(O)ccc12 [daidzein] 8.1

Record request: Decomposition efficiency of daidzin family in roasted soy flour value, item O=c1c(-c2ccc(O)cc2)coc2cc(O[C@@H]3O[C@H](CO)[C@@H](O)[C@H](O)[C@H]3O)ccc12 [daidzin] 49.4

---

System: β-Xylosidase derived from pectinase G
Assay: Reactivity toward various isoflavone glycosides (HPLC)
Assay type: biochemical
Set-up: unit not given here
Conditions: Reaction time 6 h; 55 °C, pH 4.0
observable: glucoside

Record request: glucoside value, item CC(=O)OC[C@H]1O[C@@H](Oc2cc(O)c3c(=O)c(-c4ccc(O)cc4)coc3c2)[C@H](O)[C@@H](O)[C@@H]1O [acetylgenistin, 6″-O-acetylgenistin] 99.5

Record request: glucoside value, item CC(=O)OC[C@H]1O[C@@H](Oc2ccc3c(=O)c(-c4ccc(O)cc4)coc3c2)[C@H](O)[C@@H](O)[C@@H]1O [acetyldaidzin, 6″-O-acetyldaidzin] 97.7

Record request: glucoside value, item O=C(O)CC(=O)OC[C@H]1O[C@@H](Oc2cc(O)c3c(=O)c(-c4ccc(O)cc4)coc3c2)[C@H](O)[C@@H](O)[C@@H]1O [malonylgenistin, 6″-O-malonylgenistin] 98

Record request: glucoside value, item COc1cc2c(=O)c(-c3ccc(O)cc3)coc2cc1O[C@@H]1O[C@H](CO)[C@@H](O)[C@H](O)[C@H]1O [glycitin] 95.5

Record request: glucoside value, item O=c1c(-c2ccc(O)cc2)coc2cc(O[C@@H]3O[C@H](CO)[C@@H](O)[C@H](O)[C@H]3O)cc(O)c12 [genistin] 98.2

Record request: glucoside value, item O=c1c(-c2ccc(O)cc2)coc2cc(O[C@@H]3O[C@H](CO)[C@@H](O)[C@H](O)[C@H]3O)ccc12 [daidzin] 57.9

---

Tested on: Crude diglycosidase
Assay: Examination of pH in the conversion into isoflavone aglycons by diglycosidase using soybean materials
Assay type: biochemical, Penicillium multicolor IAM7153
Conditions: pH4, heat treatment of enzyme no, reaction time 6 h, 55° C.
observable: Decomposition efficiency of glycitin family in roasted soy flour

Record request: Decomposition efficiency of glycitin family in roasted soy flour value, item COc1cc2c(=O)c(-c3ccc(O)cc3)coc2cc1O[C@@H]1O[C@H](CO)[C@@H](O)[C@H](O)[C@H]1O not detected

Record request: Decomposition efficiency of glycitin family in roasted soy flour value, item COc1cc2c(=O)c(-c3ccc(O)cc3)coc2cc1O[C@@H]1O[C@H](COC(=O)CC(=O)O)[C@@H](O)[C@H](O)[C@H]1O not detected

Record request: Decomposition efficiency of glycitin family in roasted soy flour value, item COc1cc2c(=O)c(-c3ccc(O)cc3)coc2cc1O[C@@H]1O[C@H](COC(C)=O)[C@@H](O)[C@H](O)[C@H]1O not detected

Record request: Decomposition efficiency of glycitin family in roasted soy flour value, item COc1cc2c(=O)c(-c3ccc(O)cc3)coc2cc1O 100.0

---

System: Crude diglycosidase
Assay: Examination of substrate concentration in the conversion into isoflavone aglycons by diglycosidase using soybean materials;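 note: percent of the isoflavone family total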
Assay type: biochemical, Penicillium multicolor IAM7153
Conditions: soymilk, substrate concentration 2%, heat treatment of enzyme no, reaction time 1 h
observable: Decomposition efficiency: ratio of each glycoside/aglycon within its isoflavone family

Record request: Decomposition efficiency: ratio of each glycoside/aglycon within its isoflavone family value, item COc1cc2c(=O)c(-c3ccc(O)cc3)coc2cc1O[C@@H]1O[C@H](CO)[C@@H](O)[C@H](O)[C@H]1O [glycitin] not detected

Record request: Decomposition efficiency: ratio of each glycoside/aglycon within its isoflavone family value, item O=C(O)CC(=O)OC[C@H]1O[C@@H](Oc2ccc3c(=O)c(-c4ccc(O)cc4)coc3c2)[C@H](O)[C@@H](O)[C@@H]1O [malonyldaidzin, 6″-O-malonyldaidzin] 27.5%

Record request: Decomposition efficiency: ratio of each glycoside/aglycon within its isoflavone family value, item CC(=O)OC[C@H]1O[C@@H](Oc2cc(O)c3c(=O)c(-c4ccc(O)cc4)coc3c2)[C@H](O)[C@@H](O)[C@@H]1O [acetyl-genistin] not detected

---

Test system: Crude diglycosidase
Test: Examination of temperature in the conversion into isoflavone aglycons by diglycosidase using soybean materials
Format: biochemical, Penicillium multicolor IAM7153
Conditions: 80 °C; heat treatment of enzyme: no; 1 h
observable: Decomposition efficiency of glycitin family in concentrated soybean protein (%)

Record request: Decomposition efficiency of glycitin family in concentrated soybean protein value, item COc1cc2c(=O)c(-c3ccc(O)cc3)coc2cc1O[C@@H]1O[C@H](COC(C)=O)[C@@H](O)[C@H](O)[C@H]1O [acetylglycitin, 6″-O-acetylglycitin] 36.0

A = COc1cc2c(=O)c(-c3ccc(O)cc3)coc2cc1O[C@@H]1O[C@H](COC(=O)CC(=O)O)[C@@H](O)[C@H](O)[C@H]1O [malonylglycitin, 6″-O-malonylglycitin]
B = COc1cc2c(=O)c(-c3ccc(O)cc3)coc2cc1O[C@@H]1O[C@H](CO)[C@@H](O)[C@H](O)[C@H]1O [glycitin]
C = COc1cc2c(=O)c(-c3ccc(O)cc3)coc2cc1O [glycitein]
Which order do these items take when sorted by rising Decomposition efficiency of glycitin family in concentrated soybean protein? List them. Answer by listing the labels in the order asked for. A, C, B

---

Tested on: Crude diglycosidase
Assay: Examination of pH in the conversion into isoflavone aglycons by diglycosidase using soybean materials
Assay type: biochemical, Penicillium multicolor IAM7153
Set-up: concentration or dose not given beside the values
Conditions: pH2.6; heat treatment of enzyme: no; reaction time 3 h
observable: Decomposition efficiency of genistin family in defatted soybean (%)

Record request: Decomposition efficiency of genistin family in defatted soybean value, item O=c1c(-c2ccc(O)cc2)coc2cc(O)cc(O)c12 32.7

I = CC(=O)OC[C@H]1O[C@@H](Oc2cc(O)c3c(=O)c(-c4ccc(O)cc4)coc3c2)[C@H](O)[C@@H](O)[C@@H]1O
II = O=C(O)CC(=O)OC[C@H]1O[C@@H](Oc2cc(O)c3c(=O)c(-c4ccc(O)cc4)coc3c2)[C@H](O)[C@@H](O)[C@@H]1O
III = O=c1c(-c2ccc(O)cc2)coc2cc(O[C@@H]3O[C@H](CO)[C@@H](O)[C@H](O)[C@H]3O)cc(O)c12
Rank order required: Decomposition efficiency of genistin family in defatted soybean, descending. Answer by listing the labels in the order asked for. II, III, I

---

System: Crude diglycosidase
Experiment: Examination of substrate concentration in the conversion into isoflavone aglycons by diglycosidase using soybean materials;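 note: percent of the isoflavone family total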
Format: biochemical, Penicillium multicolor IAM7153
Conditions: defatted soybean, substrate concentration 2%, heat treatment of enzyme no, reaction time 3 h
observable: Decomposition efficiency: ratio of each glycoside/aglycon within its isoflavone family

Find Decomposition efficiency: ratio of each glycoside/aglycon within its isoflavone family (Crude diglycosidase) for the entry COc1cc2c(=O)c(-c3ccc(O)cc3)coc2cc1O [glycitein] not detected

Find Decomposition efficiency: ratio of each glycoside/aglycon within its isoflavone family (Crude diglycosidase) for the entry COc1cc2c(=O)c(-c3ccc(O)cc3)coc2cc1O[C@@H]1O[C@H](COC(C)=O)[C@@H](O)[C@H](O)[C@H]1O [acetylglycitin, 6″-O-acetylglycitin] not detected

Find Decomposition efficiency: ratio of each glycoside/aglycon within its isoflavone family (Crude diglycosidase) for the entry COc1cc2c(=O)c(-c3ccc(O)cc3)coc2cc1O[C@@H]1O[C@H](CO)[C@@H](O)[C@H](O)[C@H]1O [glycitin] not detected

Find Decomposition efficiency: ratio of each glycoside/aglycon within its isoflavone family (Crude diglycosidase) for the entry COc1cc2c(=O)c(-c3ccc(O)cc3)coc2cc1O[C@@H]1O[C@H](COC(=O)CC(=O)O)[C@@H](O)[C@H](O)[C@H]1O [malonylglycitin, 6″-O-malonylglycitin] not detected
